B1: library; numbered along this chain (parent)
chain: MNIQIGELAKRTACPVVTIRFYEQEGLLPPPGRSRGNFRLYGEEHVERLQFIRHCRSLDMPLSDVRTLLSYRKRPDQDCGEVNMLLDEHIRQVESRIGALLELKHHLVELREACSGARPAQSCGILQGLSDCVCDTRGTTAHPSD

Variants of: B1
assayDetails: sfGFP reporter fluorescence (15 h) (µM FITC); higher = stronger transcriptional activation
conditionSet: library round: Round 1; ligand: 1 µM Pb
This section presents variants with their documented sfGFP reporter fluorescence values.

>  <sequenceContent>
MNIQIGELAKRTACPVVTIRFYEQEGLLPPPGRSRGNFRLYGEEHVERLQFIRHCRSLDMPLSDVRTLLSYRKRPDQDCGEVNMLLDEHIRQVESRIGALLELVHHLVELREACSGARPAQSCGILQGLSDCVCATRGTTAHPSD [K104V D135A]

>  <sfGFP reporter fluorescence>
0.123

$$$$
>  <sequenceContent>
MNIQIGELAKRTACPVVTIRFYEQEGLLPPPGRSRGNFRLYGEEHVERLQFIRHCRSLDMPLSDVRTLLSYRKRPDQDCGEVNMLLDEHIRQVESRIGALLELKHHLVELREACSGARPAQSCGILQGLSLCVCATRGTTAHPSD [D131L D135A]

>  <sfGFP reporter fluorescence>
0.0969

$$$$
>  <sequenceContent>
MNIQIGELAKRTACPVVTIRFYEQEGLLPPPGRSRGNFRLYGEEHVERLQFIRHCRSLDMPLSDVRTLLSYRKRPDQDCGEVNMLLDEHIRQVESRIGALLELKHHCVELREACSGARPAQSCAILQMLSDCVCDTRGTTAHPSD [L107C G124A G128M]

>  <sfGFP reporter fluorescence>
1.13

$$$$
>  <sequenceContent>
MNIQIGELAKRTACPVVTIRFYEQEGLLPPPGRSRGNFRLYGEEHVERLQFIRHCRSLDMPLSDVRTLLSYRKRPDQDCGEVNMLLDEHIRQVESRIGALLELKHHLVELREACSGARPAQSCGIIQGLSDCVCATRGTTAHPSD [L126I D135A]

>  <sfGFP reporter fluorescence>
0.064

$$$$
>  <sequenceContent>
MNIQIGELAKRTACPVVTIRFYEQEGLLPPPGRSRGNFRLYGEEHVERLQFIRHCRSLDMELSKVRTLLSYRKRPDQDCGEVNMLLDEHIRQVESRIGALLELKHHLVELREACSGARPAQSCGILQGLSCCVCDTRGTTAHPSD [P61E D64K D131C]

>  <sfGFP reporter fluorescence>
0.243

$$$$
>  <sequenceContent>
MNIQIGELAKRTACPVVTIRFYEQEGLLPPPGRSRGNFRLYGEEHVERLQFIRHCRSLDMNLSDVRTLLSYRKRPDQDCGEVNMLLDEHIRQVESRIGALLELKHHLVELREACSGARPAQSCGILQGLSYCVCDTRGTTAHPSD [P61N D131Y]

>  <sfGFP reporter fluorescence>
0.115

$$$$
>  <sequenceContent>
MNIQIGELAKRTACPVVTIRFYEQEGLLPPPGRSRGNFRLYGEEHVERLQFIRHCRSLDMPLSDVRTLLSYRKRPDQDCGEVTMLLDEHIRQVESRIGALLELKHHLLELREACSGARPAQSCGILQGLSCCVCDTRGTTAHTSD [N83T V108L D131C P143T]

>  <sfGFP reporter fluorescence>
0.0753

$$$$
>  <sequenceContent>
MNIQIGELAKRTACPVVTIRFYEQEGLLPPPGRSRGNFRLYGEEHVERLQFIRHCRSLDMPLSDVRTLLSYRKRPDQDCGEVNMLLDEHIRQVESRIGALLELKHHNVELREACSGARPAQSCGILQMLSDCVCDTRGTTAHPSD [L107N G128M]

>  <sfGFP reporter fluorescence>
0.225

$$$$
>  <sequenceContent>
MNIQIGELAKRTACPVVTIRFYEQEGLLPPPGRSRGNFRLYGEEHVERLQFIRHCRSLDMPLSKVRTLLSYRKRPDQDCGEVNMLLDEHIRQVESRIGALLELKHHLVELLEACSGARPAQSCGILQGLSDCVCDTRGTTAHPSD [D64K R111L]

>  <sfGFP reporter fluorescence>
0.154

$$$$
>  <sequenceContent>
MNIQIGELAKRTACPVVTIRFYEQEGLLPPPGRSRGNFRLYGEEHVERLQFIRHCRSLDMPLSTVRTLLSYRKRPDQDCGEVNMLLDEHIRQVESRIGALLELKHHLVELREACSGARPAQSCGILQGLSDCVCRTRGTTAHPSD [D64T D135R]

>  <sfGFP reporter fluorescence>
0.29

$$$$
>  <sequenceContent>
MNIQIGELAKRTACPVVTIRFYEQEGLLPPPGRSRGNFRLYGEEHVERLQFIRHCRSLDMPLSDVRTLLSYRKRPDQDCGEVTMLLDEHIRQVESRIGALLELKHHLNELREACSGARPAQSCGILQGLSDCVCDTRGTTAHPSD [N83T V108N]

>  <sfGFP reporter fluorescence>
0.0698

$$$$
>  <sequenceContent>
MNIQIGELAKRTACPVVTIRFYEQEGLLPPPGRSRGNFRLYGEEHVERLQFIRHCRSLDMPLSDVRTLLSYRKRPDQDCGEVNMLLDEHIRQVESRIGALLELKHHLVELREACSGARPAQSCGILQGLSACVCATRGTTAHPSD [D131A D135A]

>  <sfGFP reporter fluorescence>
0.184

$$$$
>  <sequenceContent>
MNIQIGELAKRTACPVVTIRFYEQEGLLPPPGRSRGNFRLYGEEHVERLQFIRHCRSLDMPLSDVRTLLSYRKRPDQDCGEVTMLLDEHIRQVESRIGALLELKHHLVELREACSGARPAQSCGILQGLSDCVMDTRGTTAHPSD [N83T C134M]

>  <sfGFP reporter fluorescence>
0.0707

$$$$
